Experiment: Aqueous solubility (neutral pH)
Format: physicochemical
Details: aqueous medium, pH 7, unit inferred
measure: solubility (µg/mL)
Just the number in µg/mL, nothing appended.

Ask: Entry Cc1ccccc1-c1cc(N2CCN(C)CC2)ncc1N(C)C(=O)C(C)(C)c1cc(C(F)(F)F)cc(C(F)(F)F)c1 [Compound 9, reference compound] has what solubility?
Result: 250

---

Test: Chemical stability according to ICH guidelines under accelerated conditions (40° C.)
Format: physicochemical
measure: Chemical Stability

Solved entries (count: 5):
Ask: Please give the measured Chemical Stability for this compound: Cc1ccccc1-c1cc([N+]2([O-])CCN(C)CC2)[n+]([O-])cc1N(C)C(=O)C(C)(C)c1cc(C(F)(F)F)cc(C(F)(F)F)c1 [Compound 6]
Result: low

Ask: Which Chemical Stability reading was recorded for the compound CC(=O)OC[N+]1(C)CCN(c2cc(-c3ccccc3C)c(N(C)C(=O)C(C)(C)c3cc(C(F)(F)F)cc(C(F)(F)F)c3)cn2)CC1 [Compound 7] ?
Result: low

Ask: Would you mind telling me what Chemical Stability value was observed for Cc1ccccc1-c1cc([N+]2([O-])CCN(C)CC2)ncc1N(C)C(=O)C(C)(C)c1cc(C(F)(F)F)cc(C(F)(F)F)c1 [Compound 5, reference compound] ?
Result: medium

Ask: Consider the compound shown here: Cc1ccccc1-c1cc(N2CCN(C)CC2)[n+]([O-])cc1N(C)C(=O)C(C)(C)c1cc(C(F)(F)F)cc(C(F)(F)F)c1 [Compound 4] What is its recorded Chemical Stability?
Result: medium

Ask: Entry Cc1ccccc1-c1cc(N2CC[N+](C)(COP(=O)(O)O)CC2)ncc1N(C)C(=O)C(C)(C)c1cc(C(F)(F)F)cc(C(F)(F)F)c1 [Compound 1] : reported Chemical Stability = ?
Result: medium

Please look at the following compound next.
Ask: For the compound CCCC(=O)OC[N+]1(C)CCN(c2cc(-c3ccccc3C)c(N(C)C(=O)C(C)(C)c3cc(C(F)(F)F)cc(C(F)(F)F)c3)cn2)CC1 [Compound 8] , what Chemical Stability is on record?
Result: Low

---

Assay: Aqueous solubility (neutral pH)
Format: physicochemical
Conditions: aqueous medium, pH 7
measure: solubility

Some solved cases for reference:
Ask: Tell me the measured solubility of Cc1ccccc1-c1cc(N2CCN(C)CC2)[n+]([O-])cc1N(C)C(=O)C(C)(C)c1cc(C(F)(F)F)cc(C(F)(F)F)c1 , please.
Result: ~600 µg/mL

Ask: Fill in: solubility of Cc1ccccc1-c1cc(N2CC[N+](C)(COP(=O)(O)O)CC2)ncc1N(C)C(=O)C(C)(C)c1cc(C(F)(F)F)cc(C(F)(F)F)c1 is ___
Result: 10000 to 15000 µg/mL

Consider the record given below.
Ask: Returns the measured solubility for the input compound. Input: Cc1ccccc1-c1cc([N+]2([O-])CCN(C)CC2)ncc1N(C)C(=O)C(C)(C)c1cc(C(F)(F)F)cc(C(F)(F)F)c1 [Compound 5, reference compound]
Result: ~1000 µg/mL

---

Test: Dog PKs study / comparative bioequivalence (IV vs oral netupitant)
Type: in vivo, Beagle dogs
Details: male, beagle, plasma, PO, 3 mg/kg, read-out: Mean AUC0-t (converted)
measure: AUC(0-t) (ng·h/mL)
Answer with a number only, understood to be in ng·h/mL.

Ask: Given the entry Cc1ccccc1-c1cc(N2CCN(C)CC2)ncc1N(C)C(=O)C(C)(C)c1cc(C(F)(F)F)cc(C(F)(F)F)c1 [Compound 9, reference compound] , report its measured AUC(0-t).
Result: 5120
